All figures here come from ChEMBL document CHEMBL1157420.

EXPERIMENTAL TARGET: 5-hydroxytryptamine receptor 1A (Homo sapiens, UniProt P08908)
Sequence (P08908 whole entry): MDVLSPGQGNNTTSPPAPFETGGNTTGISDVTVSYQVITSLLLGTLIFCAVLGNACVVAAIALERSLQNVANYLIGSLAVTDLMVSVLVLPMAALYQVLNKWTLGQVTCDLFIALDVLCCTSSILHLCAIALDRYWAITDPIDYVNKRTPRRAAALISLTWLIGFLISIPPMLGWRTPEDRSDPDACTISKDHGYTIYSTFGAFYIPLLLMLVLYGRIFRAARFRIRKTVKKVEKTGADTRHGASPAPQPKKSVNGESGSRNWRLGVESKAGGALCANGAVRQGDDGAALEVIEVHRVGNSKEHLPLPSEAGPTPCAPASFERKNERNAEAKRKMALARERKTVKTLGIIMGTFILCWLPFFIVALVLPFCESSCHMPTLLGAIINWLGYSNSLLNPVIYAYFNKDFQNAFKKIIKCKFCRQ
ASSAY: Binding affinity to human 5HT1A receptor
RECORDED METRIC: Ki (nM)
# output: bare number, implied unit nM

Report Ki for "FC(F)(F)c1nc2c(N3CCN(CCCOc4cccc5[nH]c(=S)[nH]c45)CC3)cccc2[nH]1" 2.3

----------
EXPERIMENTAL TARGET: Gonadotropin-releasing hormone receptor (Rattus norvegicus)
ASSAY: Displacement of [125I]-(D-Trp6)LHRH from rat recombinant GnRH receptor
RECORDED METRIC: IC50 (nM)
# output: bare number, implied unit nM

Consider the following illustrative entries.
INSERT INTO assay_data (smiles_entry, experimental_target, recorded_metric, recorded_value) VALUES
  ('CCn1cc(CN2CCN(c3cccc4[nH]c(-c5ccc(C(C)(C)C)cc5)nc34)CC2)c(=O)[nH]c1=O', 'Gonadotropin-releasing hormone receptor (Rattus norvegicus)', 'IC50', 32),
  ('CC(C)c1ccc(-c2nc3c(N4CCN(CCOc5cccc6nc(C(F)(F)F)[nH]c56)CC4)cccc3[nH]2)cc1', 'Gonadotropin-releasing hormone receptor (Rattus norvegicus)', 'IC50', 990),
  ('CCc1ccc(-c2nc3c(N4CCN(CCOc5cccc6[nH]c(=S)[nH]c56)CC4)cccc3[nH]2)cc1', 'Gonadotropin-releasing hormone receptor (Rattus norvegicus)', 'IC50', 3900),
  ('FC(F)(F)c1nc2c(N3CCN(CCOc4cccc5[nH]c(=S)[nH]c45)CC3)cccc2[nH]1', 'Gonadotropin-releasing hormone receptor (Rattus norvegicus)', 'IC50', 21000),
  ('CC(C)(C)c1ccc(-c2nc3c(N4CCN(Cc5cccc6[nH]c(=S)[nH]c56)CC4)cccc3[nH]2)cc1', 'Gonadotropin-releasing hormone receptor (Rattus norvegicus)', 'IC50', 110);

# context switch: different molecule, same IC50
Report IC50 for "CC(C)(C)c1ccc(-c2nc3c(N4CCN(Cc5c[nH]c(=O)[nH]c5=O)CC4)cccc3[nH]2)cc1" 32

----------
EXPERIMENTAL TARGET: Gonadotropin-releasing hormone receptor (Rattus norvegicus, UniProt P30969)
Sequence (P30969 whole entry): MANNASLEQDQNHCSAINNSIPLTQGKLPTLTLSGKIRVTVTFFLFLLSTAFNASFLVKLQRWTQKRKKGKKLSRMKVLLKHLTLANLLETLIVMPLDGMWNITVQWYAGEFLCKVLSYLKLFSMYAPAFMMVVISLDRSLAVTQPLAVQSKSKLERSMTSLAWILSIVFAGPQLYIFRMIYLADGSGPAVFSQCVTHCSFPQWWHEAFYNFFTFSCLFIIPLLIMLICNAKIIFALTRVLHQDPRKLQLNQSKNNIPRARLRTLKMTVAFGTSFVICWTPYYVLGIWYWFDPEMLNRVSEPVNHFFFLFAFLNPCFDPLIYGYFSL
ASSAY: Antagonist activity at […] GnRH receptor in CO2 asphyxiated rat primary pituitary cells assessed as reduction in (D-Trp6)LHRH-induced LH release
Format: functional, cell-based, Pituitary gland cell
Please note: IC50 exactly at 500 nM is Not met. Only values below 500 nM get Met.

INSERT INTO assay_data (smiles_entry, class_assignment) VALUES
  ('CCn1cc(CN2CCN(c3cccc4[nH]c(-c5ccc(C(C)(C)C)cc5)nc34)CC2)c(=O)[nH]c1=O', 'Met'),
  ('FC(F)(F)c1nc2c(N3CCN(CCOc4cccc5nc(C(F)(F)F)[nH]c45)CC3)cccc2[nH]1', 'Not met'),
  ('CC(C)(C)c1ccc(-c2nc3c(N4CCN(Cc5cccc6[nH]c(=O)[nH]c56)CC4)cccc3[nH]2)cc1', 'Not met'),
  ('FC(F)(F)c1nc2c(N3CCN(CCOc4cccc5[nH]c(=S)[nH]c45)CC3)cccc2[nH]1', 'Not met'),
  ('CC(C)(C)c1ccc(-c2nc3c(N4CCN(Cc5ccc6[nH]c(=O)c(=O)[nH]c6c5)CC4)cccc3[nH]2)cc1', 'Met'),
  ('CC(C)(C)c1ccc(-c2nc3c(N4CCN(Cc5cccc6[nH]c(=S)[nH]c56)CC4)cccc3[nH]2)cc1', 'Met');

Regarding "CC(C)(C)c1ccc(-c2nc3c(N4CCN(Cc5c[nH]c(=O)[nH]c5=O)CC4)cccc3[nH]2)cc1" , kindly confirm whether its IC50 is beneath 500 nM. Met

Regarding "CC(C)(C)c1ccc(-c2nc3c(N4CCN(Cc5cccc6[nH]c(=O)c(=O)[nH]c56)CC4)cccc3[nH]2)cc1" , kindly confirm whether its IC50 is beneath 500 nM. Met

----------
EXPERIMENTAL TARGET: Gonadotropin-releasing hormone receptor (Homo sapiens)
Sequence (P30968 whole entry): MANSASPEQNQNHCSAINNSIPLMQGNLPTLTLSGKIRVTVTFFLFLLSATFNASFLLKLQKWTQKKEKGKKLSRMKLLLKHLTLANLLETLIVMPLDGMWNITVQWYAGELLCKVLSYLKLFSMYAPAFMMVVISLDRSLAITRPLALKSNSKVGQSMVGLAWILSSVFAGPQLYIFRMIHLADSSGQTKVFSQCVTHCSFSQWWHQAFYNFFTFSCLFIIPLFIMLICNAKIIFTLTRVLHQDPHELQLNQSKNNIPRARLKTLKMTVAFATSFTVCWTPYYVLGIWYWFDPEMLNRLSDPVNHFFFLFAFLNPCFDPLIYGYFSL
ASSAY: Displacement of [125I]-(D-Trp6)LHRH from human recombinant GnRH receptor
RECORDED METRIC: IC50 (nM)
# output: bare number, implied unit nM

INSERT INTO measurements (smiles_entry, recorded_value) VALUES
  ('CC(C)(C)c1ccc(-c2nc3c(N4CCN(Cc5cccc6[nH]c(=O)c(=O)[nH]c56)CC4)cccc3[nH]2)cc1', 5.7),
  ('S=c1[nH]c2cccc(OCCN3CCN(c4cccc5[nH]c(-c6ccccc6)nc45)CC3)c2[nH]1', 11000),
  ('FC(F)(F)c1nc2c(N3CCN(CCOc4ccc5[nH]c(=S)[nH]c5c4)CC3)cccc2[nH]1', 4500);

Would you please give the reported IC50 of "CC(C)(C)c1ccc(-c2nc3c(N4CCN(Cc5cccc6[nH]c(=S)[nH]c56)CC4)cccc3[nH]2)cc1" with Gonadotropin-releasing hormone receptor (Homo sapiens)? 6.2

Would you please give the reported IC50 of "FC(F)(F)c1nc2c(N3CCN(Cc4cccc5[nH]c(=S)[nH]c45)CC3)cccc2[nH]1" with Gonadotropin-releasing hormone receptor (Homo sapiens)? 580

Would you please give the reported IC50 of "CC(C)c1ccc(-c2nc3c(N4CCN(CCOc5cccc6nc(C(F)(F)F)[nH]c56)CC4)cccc3[nH]2)cc1" with Gonadotropin-releasing hormone receptor (Homo sapiens)? 120

Would you please give the reported IC50 of "CC(C)(C)c1ccc(-c2nc3c(N4CCN(Cc5c[nH]c(=O)[nH]c5=O)CC4)cccc3[nH]2)cc1" with Gonadotropin-releasing hormone receptor (Homo sapiens)? 5.5

Would you please give the reported IC50 of "FC(F)(F)c1nc2c(N3CCN(CCOc4cccc5nc(C(F)(F)F)[nH]c45)CC3)cccc2[nH]1" with Gonadotropin-releasing hormone receptor (Homo sapiens)? 1500
